Source: the RNAGym collection of RNA variant scans (doi:10.7554/elife.90254)

B1: LINE1-mini (parent)
chain: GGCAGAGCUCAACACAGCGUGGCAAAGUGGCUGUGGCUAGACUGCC

Variants of: B1
Measurement Protocol: self-cleavage, relative activity (ratio to wild type); higher = more cleavage; in vitro, sequencing; the parent is a self-cleaving ribozyme
Measured self-cleavage of individual entries

{"Polymer Sequence": "GGCAGGGCUCAACACAGCGUGGCAAAGUGGAUGUGGCUAGACUGCC [A6G C31A]", "self-cleavage": 0.07}
{"Polymer Sequence": "GGCAGAGCUCAACACAACGUGGAAAAGUGGCUGUGGCUAGACUGCC [G17A C23A]", "self-cleavage": 0.29}
{"Polymer Sequence": "GGCAGAGCUAAACAAAGCGUGGCAAAGUGGCUGUGGCUAGACUGCC [C10A C15A]", "self-cleavage": 0.04}
{"Polymer Sequence": "GGCAGAGCUCAACACCGCGUGGCAAAGUGGCUGUGGCUAUACUGCC [A16C G40U]", "self-cleavage": 0.03}
{"Polymer Sequence": "GGCAGAGCUCAACACAGCGUGGCAAAGUUGCUGUGGCUAAACUGCC [G29U G40A]", "self-cleavage": 0.15}
{"Polymer Sequence": "GGCACAGCUCAACACAGCGUGGCACAGUGGCUGUGGCUAGACUGCC [G5C A25C]", "self-cleavage": 0.05}
{"Polymer Sequence": "GGCAGAGCUCGACACAGCGUGGCAAAGUGGGUGUGGCUAGACUGCC [A11G C31G]", "self-cleavage": 0.03}
{"Polymer Sequence": "GGCAGCGCUCAACACAGCGUGGCAAAGUGGCUGUGGCUAGACUUCC [A6C G44U]", "self-cleavage": 0.18}
{"Polymer Sequence": "GUCAGAGCUCAACACAGCGUGGCAAAGUGGUUGUGGCUAGACUGCC [G2U C31U]", "self-cleavage": 0.02}
{"Polymer Sequence": "GGCAGAGCGCAACAUAGCGUGGCAAAGUGGCUGUGGCUAGACUGCC [U9G C15U]", "self-cleavage": 0.17}
{"Polymer Sequence": "GGCAGAGCUCACUACAGCGUGGCAAAGUGGCUGUGGCUAGACUGCC [A12C C13U]", "self-cleavage": 0.01}
{"Polymer Sequence": "GGCAGAGCUCAACACAGCGUGGCAAAAUGGCAGUGGCUAGACUGCC [G27A U32A]", "self-cleavage": 0.06}
{"Polymer Sequence": "GGCAGAGCUCAAGACAGCGUGGAAAAGUGGCUGUGGCUAGACUGCC [C13G C23A]", "self-cleavage": 0.29}
{"Polymer Sequence": "GGCAGAGCUCAACACAGCGUGGCUAAGUGGCUGUGGCUACACUGCC [A24U G40C]", "self-cleavage": 0.11}
{"Polymer Sequence": "GGGAGAGCUCAACACAGCGUGGCAGAGUGGCUGUGGCUAGACUGCC [C3G A25G]", "self-cleavage": 0.14}
{"Polymer Sequence": "GGCAGAGCUCAACACAGAGUGGCAAAGUGGCUGUGGCUAUACUGCC [C18A G40U]", "self-cleavage": 0.06}
{"Polymer Sequence": "GGCAGAGCUCAACACAGCGAGGCAAAGUGGCAGUGGCUAGACUGCC [U20A U32A]", "self-cleavage": 0.06}
{"Polymer Sequence": "GGCAGAGCUCAACACAGCUUGGCAAAGUGGCUGUGGCUAGACCGCC [G19U U43C]", "self-cleavage": 0.07}
{"Polymer Sequence": "GGCAGAGCUCAACACACCAUGGCAAAGUGGCUGUGGCUAGACUGCC [G17C G19A]", "self-cleavage": 1.14}
{"Polymer Sequence": "GGCGGAGCUCAACACAGCGUGGCAAAGUGGCUGUGGCUAGCCUGCC [A4G A41C]", "self-cleavage": 0.19}
{"Polymer Sequence": "GGCAGAGCUCAACACAGCACGGCAAAGUGGCUGUGGCUAGACUGCC [G19A U20C]", "self-cleavage": 0.46}
{"Polymer Sequence": "GGCAGAGCUCAACACAGCGUGGCAAAGUGGCUGUGGCUAGACGGAC [U43G C45A]", "self-cleavage": 0.32}
{"Polymer Sequence": "GGCUGAGCUCAACACAGCGUGGCAAAGUGGCUGUGGCUAGUCUGCC [A4U A41U]", "self-cleavage": 0.12}
